Recorded values, source patent US6737383B1.

Tested on: crabgrass
ASSAY_DETAILS: Test B pre/postemergence crabgrass
Type: in vivo, Digitaria sanguinalis
PARTICULARS: Rate 250 g/ha, Postemergence; scale 0 to 10, 0 is no effect, 10 is complete control
VALUE_KIND: Plant response rating, Crabgrass
// no unit string in output, number only

CC(C)N(C(=O)n1oc(=O)n([C@@H](C)c2ccccc2)c1=O)c1ccc(Cl)cc1 [Compound 174]; 7
CC(C)N(C(=O)n1oc(=O)n(C)c1=O)c1ccc(F)cc1 [Compound 138]; 9
C=CCn1c(=O)on(C(=O)N(c2ccc(F)cc2)C2CC2)c1=O [Compound 154]; 1
Cc1nsc(C)c1-n1c(=O)on(C(=O)N(c2ccc(Cl)cc2)C(C)C)c1=O [Compound 159]; 0

Next, consider the following compound.
State, for crabgrass, measured Plant response rating, Crabgrass of the compound listed here: CC1CCCCC1n1c(=O)on(C(=O)N(c2ccccc2)C(C)C)c1=O (centres unmarked) [Compound 162] 6
